Data origin: paper PMC4505066

SYSTEM: T1, HDAC4 catalytic domain C667A
T1 chain: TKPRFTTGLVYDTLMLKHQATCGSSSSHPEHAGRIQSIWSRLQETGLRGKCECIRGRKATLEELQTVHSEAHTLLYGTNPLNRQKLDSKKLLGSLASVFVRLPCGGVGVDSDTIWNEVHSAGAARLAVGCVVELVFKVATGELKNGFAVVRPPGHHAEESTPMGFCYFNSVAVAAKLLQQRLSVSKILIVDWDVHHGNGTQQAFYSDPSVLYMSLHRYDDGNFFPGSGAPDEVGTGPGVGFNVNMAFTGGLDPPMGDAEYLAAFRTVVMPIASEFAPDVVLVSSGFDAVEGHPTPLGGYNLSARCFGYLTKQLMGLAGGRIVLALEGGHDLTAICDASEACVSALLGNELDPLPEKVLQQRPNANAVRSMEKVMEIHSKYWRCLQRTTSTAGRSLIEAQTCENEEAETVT
EXPERIMENTAL_PROTOCOL: FP
pKd: −log10 of the molar value. No end group written: not given here.
ENDPOINT: pKd

Name the recorded pKd for `C(BODIPY‑TMR)PRPLKEGSITQGTPLKYDTG` .
< 3.00
